# System: Streptococcus pneumoniae
# assay_notes: Inhibition of DHPS in Streptococcus pneumoniae assessed as antibacterial activity by measuring inhibition zone at 5 mg/mL incubated for 24 hrs by disk diffusion method
Calls of active or inactive are those of the source. The rule behind the calls is not given here.
reported_property: inhibition zone (IZ)

Examples from the recorded data:
Provide measured inhibition zone (IZ) value, entry: "CN/C(S)=C(/C#N)C(=O)Nc1ccc(S(=O)(=O)Nc2onc(C)c2C)cc1"
20.3 mm

Provide measured inhibition zone (IZ) value, entry: "CC1(C)S[C@@H]2[C@H](NC(=O)[C@H](N)c3ccccc3)C(=O)N2[C@H]1C(=O)O"
23.8 mm

Provide measured inhibition zone (IZ) value, entry: "CCN/C(S)=C(/C#N)C(=O)Nc1ccc(S(=O)(=O)Nc2onc(C)c2C)cc1"
13.7 mm

Provide measured inhibition zone (IZ) value, entry: "CCS/C(Nc1ccccc1)=C(\C#N)C(=O)Nc1ccc(S(=O)(=O)Nc2onc(C)c2C)cc1"
inactive

Provide measured inhibition zone (IZ) value, entry: "CN/C(S[C@@H]1O[C@H](COC(C)=O)[C@@H](OC(C)=O)[C@H](OC(C)=O)[C@H]1OC(C)=O)=C(/C#N)C(=O)Nc1ccc(S(=O)(=O)Nc2onc(C)c2C)cc1"
22.2 mm

More entries:
Provide measured inhibition zone (IZ) value, entry: "CCS/C(NC)=C(\C#N)C(=O)Nc1ccc(S(=O)(=O)Nc2onc(C)c2C)cc1"
20.2 mm

Provide measured inhibition zone (IZ) value, entry: "C=CCN/C(SCC)=C(/C#N)C(=O)Nc1ccc(S(=O)(=O)Nc2onc(C)c2C)cc1"
24.9 mm

Provide measured inhibition zone (IZ) value, entry: "CC(=O)OC[C@H]1O[C@@H](S/C(Nc2ccccc2)=C(\C#N)C(=O)Nc2ccc(S(=O)(=O)Nc3onc(C)c3C)cc2)[C@H](OC(C)=O)[C@@H](OC(C)=O)[C@@H]1OC(C)=O"
10.6 mm

Provide measured inhibition zone (IZ) value, entry: "Cc1noc(NS(=O)(=O)c2ccc(NC(=O)/C(C#N)=C(/S)Nc3ccccc3)cc2)c1C"
inactive

Provide measured inhibition zone (IZ) value, entry: "CN/C(SC)=C(/C#N)C(=O)Nc1ccc(S(=O)(=O)Nc2onc(C)c2C)cc1"
inactive

Provide measured inhibition zone (IZ) value, entry: "CCN/C(S[C@@H]1O[C@H](COC(C)=O)[C@H](OC(C)=O)[C@H](OC(C)=O)[C@H]1OC(C)=O)=C(/C#N)C(=O)Nc1ccc(S(=O)(=O)Nc2onc(C)c2C)cc1"
18.9 mm

Provide measured inhibition zone (IZ) value, entry: "Cc1noc(NS(=O)(=O)c2ccc(N)cc2)c1C"
19.6 mm

Provide measured inhibition zone (IZ) value, entry: "C=CCN/C(S[C@@H]1O[C@H](COC(C)=O)[C@@H](OC(C)=O)[C@H](OC(C)=O)[C@H]1OC(C)=O)=C(/C#N)C(=O)Nc1ccc(S(=O)(=O)Nc2onc(C)c2C)cc1"
26.7 mm

Provide measured inhibition zone (IZ) value, entry: "CN/C(S[C@@H]1O[C@H](COC(C)=O)[C@H](OC(C)=O)[C@H](OC(C)=O)[C@H]1OC(C)=O)=C(/C#N)C(=O)Nc1ccc(S(=O)(=O)Nc2onc(C)c2C)cc1"
17.3 mm

Provide measured inhibition zone (IZ) value, entry: "C=CCN/C(S)=C(/C#N)C(=O)Nc1ccc(S(=O)(=O)Nc2onc(C)c2C)cc1"
21.7 mm

Provide measured inhibition zone (IZ) value, entry: "C=CCN/C(SC)=C(/C#N)C(=O)Nc1ccc(S(=O)(=O)Nc2onc(C)c2C)cc1"
inactive
